biological target: Amine oxidase [flavin-containing] A (Homo sapiens, UniProt P21397); test: Inhibition of human recombinant MAOA expressed in BTI-TN-5B1-4 cells assessed as effect on H2O2 production from para-tyramine by fluorimetric method; format: cell-based
Sequence (P21397 whole entry): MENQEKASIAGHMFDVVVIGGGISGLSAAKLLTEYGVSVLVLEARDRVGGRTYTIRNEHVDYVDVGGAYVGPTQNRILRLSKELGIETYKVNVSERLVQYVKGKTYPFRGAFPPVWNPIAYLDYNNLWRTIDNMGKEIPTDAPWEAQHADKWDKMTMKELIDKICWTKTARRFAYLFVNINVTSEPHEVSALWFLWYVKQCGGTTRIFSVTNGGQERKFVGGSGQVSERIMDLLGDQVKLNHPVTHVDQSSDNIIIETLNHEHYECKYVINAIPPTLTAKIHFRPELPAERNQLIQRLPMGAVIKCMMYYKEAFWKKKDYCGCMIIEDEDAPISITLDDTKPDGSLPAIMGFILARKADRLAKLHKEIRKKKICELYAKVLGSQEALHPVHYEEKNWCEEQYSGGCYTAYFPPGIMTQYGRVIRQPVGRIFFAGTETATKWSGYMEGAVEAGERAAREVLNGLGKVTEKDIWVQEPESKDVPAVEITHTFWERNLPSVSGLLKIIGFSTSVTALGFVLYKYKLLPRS
pIC50: −log10 of the molar value.
measurement_type: pIC50

Check out these entries, answers already filled in.
CSc1ccc(NC(=O)c2cc3ccccc3oc2=O)cc1 :: 4.83
CCOC(=O)c1ccc(NC(=O)c2cc3ccccc3oc2=O)cc1 :: 4.80
Cc1cc(C)cc(NC(=O)c2cc3ccccc3oc2=O)c1 :: 4.76
O=C(Nc1ccccc1Cc1ccccc1)c1cc2ccc(OCc3ccc(F)cc3)cc2oc1=O :: 4.25
COc1ccc(NC(=O)c2cc3ccc(OCc4ccc(F)cc4)cc3oc2=O)cc1OC :: 4.31

A: CC(C)CNC(=O)c1cc2ccc(OCc3ccccc3)cc2oc1=O
B: CC(C)c1ccc(NC(=O)c2cc3ccccc3oc2=O)cc1
Ask: Kindly compare A with B and tell me which has the lower pIC50 figure. Write down the label attached to your selection.
Result: A
(A: 4.23, B: 4.82)

P: CC(C)NC(=O)c1cc2ccc(OCc3ccccc3)cc2oc1=O
Q: Cc1ccc(NC(=O)c2cc3ccccc3oc2=O)cc1C
Ask: Smaller pIC50 value? Options are P and Q Refer to your chosen item by its label in the answer.
Result: P
(P: 4.20, Q: 4.73)

a: Cc1cccc(Cl)c1NC(=O)c1cc2ccc(OCc3ccc(F)cc3)cc2oc1=O
b: Cc1cccc(NC(=O)c2cc3ccccc3oc2=O)c1
Ask: Please indicate which entry, a or b , has the lower recorded pIC50 value. Reply briefly: the label of your chosen item.
Result: a
(a: 4.23, b: 4.84)

P: Cc1cccc(C)c1NC(=O)c1cc2ccccc2oc1=O
Q: COc1cc(NC(=O)c2cc3ccc(OCc4ccc(F)cc4)cc3oc2=O)cc(OC)c1
Ask: Larger number for pIC50: P , or Q ? Kindly give the label for the entry you pick.
Result: P

A: COc1ccc(NC(=O)c2cc3ccccc3oc2=O)cc1OC
B: O=C(Nc1ccccc1Cc1ccccc1)c1cc2ccc(OCc3ccccc3)cc2oc1=O
Ask: Of A and B , whose reported pIC50 is numerically smaller? Choose, then provide that item's label.
Result: B
(B: 4.28, A: 5.02)

A: O=C(Nc1ccc(F)cc1)c1cc2ccccc2oc1=O
B: N#Cc1c(F)c(F)c(NC(=O)c2cc3ccc(OCc4ccccc4)cc3oc2=O)c(F)c1F
Ask: // pick larger pIC50 from pair: A vs B Write down the label attached to your selection.
Result: A
(A: 4.88, B: 4.21)

I: Cc1ccc(NC(=O)c2cc3ccccc3oc2=O)c(C)c1
II: Cc1cccc(NC(=O)c2cc3ccccc3oc2=O)c1C
III: COc1cc(NC(=O)c2cc3ccccc3oc2=O)cc(OC)c1
Ask: Hi! Can you put these in order of pIC50, lowest number first? List the labels, following the order given in the request.
Result: III, II, I

1: O=C(Nc1ccccc1)c1cc2ccccc2oc1=O
2: COc1ccc(NC(=O)c2cc3ccc(OCc4ccccc4)c(C)c3oc2=O)cc1OC
Ask: Higher pIC50 between 1 and 2 ? In your reply, give the label of the chosen option.
Result: 1
(1: 4.88, 2: 4.31)
